# assay_protocol: Cytotoxicity against Swiss mouse peritoneal macrophages after 24 hrs by MTT assay
# Format: cell-based, Peritoneal macrophage cell
Please assign a class to every record based on measured CC50 at 24 h, with ranges Low: < 100 µM; Medium: ≥ 100 µM and < 300 µM; High: ≥ 300 µM

Solved cases (8 shown):
compound	classification
C=C(C(=O)OCCO)C(O)c1cccnc1 (racemic)	High
C=C(C(=O)OCCO)C(O)c1ccccn1 (racemic)	High
C=C(C(=O)OCCC)C(O)c1ccc(Br)cc1 (racemic)	Medium
C=C(C(=O)OCCC)C(O)c1ccccn1 (racemic)	High
C=C(C(=O)OCCO)C(O)c1cccc([N+](=O)[O-])c1 (racemic)	Low
C=C(C(=O)OCCO)C(O)c1ccc2ccccc2c1 (racemic)	Medium
C=C(C(=O)OCCC)C(O)c1ccccc1[N+](=O)[O-] (racemic)	Medium
C=C(C(=O)OCCO)C(O)c1ccc([N+](=O)[O-])cc1 (racemic)	Low

Data request: Record C=C(C(=O)OCCC)C(O)c1ccncc1 (racemic) — which class?
Data returned: Medium

Data request: Record C=C(C(=O)OCCO)C(O)c1ccccc1[N+](=O)[O-] (racemic) — which class?
Data returned: Medium
